- System: Saccharomyces cerevisiae
- MEASUREMENT DESCRIPTION: protein stability index of tFT-peptide fusion (C-terminal peptide) (PSI (0-1 scale)); higher = more stable (slower turnover);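 note: PSI is a weighted mean of sequencing reads over stability bins, variants kept only with over 10 reads, mCherry proximal and sfGFP distal, peptide attached via GGGS linker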
- MEASUREMENT PARAMETERS: genetic background: wild type; temperature: 30 C
ATTRIBUTE MEASURED: protein stability index

Examples from the recorded data:
DGGVGGGAPRVR    0.78
PAHSLPPPPPPP    0.702
PPATLIWAWFFR    0.67

Now let's try a different one.
query: Fill in the blank: the reported protein stability index of `SSSHIRTDLSHF` is ____.
result: 0.685

====

- Test system: Saccharomyces cerevisiae
- MEASUREMENT DESCRIPTION: protein stability index of tFT-peptide fusion (C-terminal peptide) (PSI (0-1 scale)); higher = more stable (slower turnover)
- MEASUREMENT PARAMETERS: genetic background: doa10 deletion; temperature: 30 C
ATTRIBUTE MEASURED: protein stability index
Just the number, please, no unit after it.

RERRISRIPCLS    0.174
VVSVVVLVNSRG    0.341
DRLRSGLSLLLA    0.365
KLKLWSIIKNNA    0.181
FLAFLEPRVCCA    0.21
SVRGGSFLVHLC    0.154

query: Fill in the blank: the reported protein stability index of `FFCSILLGIILL` is ____.
result: 0.47

query: What do you get for `ASVSVWCVSVVV` ?
result: 0.087

query: What do you get for `VRYCFFWVRAVV` ?
result: 0.173

query: What do you get for `TLVFPRFLFLVV` ?
result: 0.518

Recorded values, source the supplement of paper PMC10724198.
